Recorded values, source the supplement of paper PMC8728848.

# study_target: GlcA(b1-6)Gal
# procedure_summary: glycan array binding signal (z-score within array); higher = stronger binding
# setup_conditions: glycan notation: IUPAC condensed, linker removed
Shown is part of a subset that was picked to be rich in the strongest signals.
I'd be grateful if you could share measured glycan array binding signal (z-score) for these entries.
Response field accepts a number only; no unit should be typed.

## Input Entry Annexin-A1 (Mus musculus), P10107 (protein) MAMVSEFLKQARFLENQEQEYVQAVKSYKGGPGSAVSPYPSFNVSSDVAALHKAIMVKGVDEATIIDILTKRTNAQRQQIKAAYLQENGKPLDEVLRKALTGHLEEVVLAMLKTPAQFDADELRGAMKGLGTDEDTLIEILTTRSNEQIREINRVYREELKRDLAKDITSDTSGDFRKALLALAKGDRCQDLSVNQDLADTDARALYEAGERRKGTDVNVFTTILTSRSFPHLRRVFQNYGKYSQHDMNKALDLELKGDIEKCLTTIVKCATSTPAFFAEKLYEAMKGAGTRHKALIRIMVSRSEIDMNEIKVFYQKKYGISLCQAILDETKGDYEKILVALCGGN has what glycan array binding signal (z-score)?
## Output 0.482

## Input Another: LlpA (Arthrobacter sp) (protein) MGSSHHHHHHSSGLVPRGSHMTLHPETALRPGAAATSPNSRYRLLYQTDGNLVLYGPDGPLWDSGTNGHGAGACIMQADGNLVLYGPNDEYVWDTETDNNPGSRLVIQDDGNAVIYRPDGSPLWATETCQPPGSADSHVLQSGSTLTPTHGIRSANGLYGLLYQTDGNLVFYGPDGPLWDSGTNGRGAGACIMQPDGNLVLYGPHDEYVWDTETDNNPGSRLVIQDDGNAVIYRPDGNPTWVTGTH
## Output 0.793

## Input What about this binder? DC SIGN CRD (Homo sapiens), Q9NNX6 (protein) QPCPWEWTFFQGNCYFMSNSQRNWHDSITACKEVGAQLVVIKSAEEQNFLQLQSSRSNRFTWMGLSDLNQEGTWQWVDGSPLLPSFKQYWNRGEPNNVGEEDCAEFSGNGWNDDKCNLAKFWICKKSAWSHPQFEK
## Output -0.392
